# METHOD_NOTES: Mean residence time in dog at 1 mg/kg, po
# Format: ADME, organism-based, Canis lupus familiaris
# Set-up: dose 1 mg/kg, route oral
# TEST_SETTINGS: in vivo
MEASURED_PROPERTY: MRT (h)
Only the number, expressed in h, is required.

In: // lookup MRT for Cc1cc(F)ccc1[C@H]1CN(C(=O)C(N)=O)CC[C@@H]1C(=O)N(C)[C@@H](C)c1cc(C(F)(F)F)cc(C(F)(F)F)c1
Out: 6.5

---

# METHOD_NOTES: AUC (0 to 24 hrs) in rat at 1 mg/kg, po
# Type: ADME, organism-based
# Design: time < 24 hr, dose 1 mg/kg, route oral
# TEST_SETTINGS: plasma
MEASURED_PROPERTY: AUC(0-t) at 24 h (ng·h/mL)
Only the number, expressed in ng·h/mL, is required.

In: // lookup AUC(0-t) at 24 h for Cc1cc(F)ccc1[C@H]1CN(C(=O)C(N)=O)CC[C@@H]1C(=O)N(C)[C@@H](C)c1cc(C(F)(F)F)cc(C(F)(F)F)c1
Out: 521

---

# METHOD_NOTES: Metabolic stability in rat microsomes
# Format: ADME, Microsome
MEASURED_PROPERTY: Stability (µL/min/mg)
Only the number, expressed in µL/min/mg, is required.

In: // lookup Stability for Cc1cc(F)ccc1[C@H]1CN(C(=O)C(N)=O)CC[C@@H]1C(=O)N(C)[C@@H](C)c1cc(C(F)(F)F)cc(C(F)(F)F)c1
Out: 13

---

# METHOD_NOTES: Mean residence time in rat at 1 mg/kg, po
# Type: ADME, organism-based
# Set-up: dose 1 mg/kg, route oral
# TEST_SETTINGS: in vivo
MEASURED_PROPERTY: MRT (h)
Only the number, expressed in h, is required.

In: // lookup MRT for Cc1cc(F)ccc1[C@H]1CN(C(=O)C(N)=O)CC[C@@H]1C(=O)N(C)[C@@H](C)c1cc(C(F)(F)F)cc(C(F)(F)F)c1
Out: 4.5

---

# METHOD_NOTES: Metabolic stability in dog microsomes
# Assay type: ADME, Canis lupus familiaris, Microsome
MEASURED_PROPERTY: Stability (µL/min/mg)
Only the number, expressed in µL/min/mg, is required.

In: // lookup Stability for Cc1cc(F)ccc1[C@H]1CN(C(=O)C(N)=O)CC[C@@H]1C(=O)N(C)[C@@H](C)c1cc(C(F)(F)F)cc(C(F)(F)F)c1
Out: 0

---

# METHOD_NOTES: AUC (0 to 24 hrs) in dog at 1 mg/kg, po
# Assay type: ADME, organism-based, Canis lupus familiaris
# Set-up: time < 24 hr, dose 1 mg/kg, route oral
# TEST_SETTINGS: plasma
MEASURED_PROPERTY: AUC(0-t) at 24 h (ng·h/mL)
Only the number, expressed in ng·h/mL, is required.

In: // lookup AUC(0-t) at 24 h for Cc1cc(F)ccc1[C@H]1CN(C(=O)C(N)=O)CC[C@@H]1C(=O)N(C)[C@@H](C)c1cc(C(F)(F)F)cc(C(F)(F)F)c1
Out: 2150

---

# EXPERIMENTAL_TARGET: Substance-P receptor (Homo sapiens)
# Sequence (P25103 whole entry): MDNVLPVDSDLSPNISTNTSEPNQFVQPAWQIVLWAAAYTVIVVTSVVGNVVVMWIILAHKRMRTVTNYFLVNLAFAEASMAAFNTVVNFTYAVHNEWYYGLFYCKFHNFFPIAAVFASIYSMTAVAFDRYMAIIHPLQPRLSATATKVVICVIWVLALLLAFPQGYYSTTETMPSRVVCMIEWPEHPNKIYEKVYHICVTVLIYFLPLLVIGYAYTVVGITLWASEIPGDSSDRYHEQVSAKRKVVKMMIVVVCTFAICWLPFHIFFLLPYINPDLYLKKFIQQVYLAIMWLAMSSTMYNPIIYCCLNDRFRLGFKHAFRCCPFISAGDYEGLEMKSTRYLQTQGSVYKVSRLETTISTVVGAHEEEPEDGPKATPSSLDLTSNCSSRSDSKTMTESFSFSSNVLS
# METHOD_NOTES: Displacement of [125I]BH-SP from tachykinin NK1 receptor in human IM9 cells after 30 mins by scintillation counting
MEASURED_PROPERTY: pIC50
Remember, pIC50 is on a log scale: it is -log10 of the molar concentration.

Observe how each entry below is paired with its result.
[[record]]
compound = "CC(=O)N1CC[C@@H](C(=O)N(C)Cc2cc(C(F)(F)F)cc(C(F)(F)F)c2)[C@H](c2ccccc2)C1 (racemic)"
reported = 8.59

[[record]]
compound = "CC(=O)N1CCC(C(=O)N2CC[C@H](C(=O)N(C)Cc3cc(C(F)(F)F)cc(C(F)(F)F)c3)[C@@H](c3ccc(F)cc3C)C2)CC1 (racemic)"
reported = 10.33

[[record]]
compound = "CC(=O)N1CCC(C(=O)N2CCC(C(=O)N(C)Cc3cc(C(F)(F)F)cc(C(F)(F)F)c3)=C(c3ccccc3)C2)CC1"
reported = 9.77


In: // lookup pIC50 for Cc1cc(F)ccc1[C@H]1CN(C(=O)C(=O)NO)CC[C@@H]1C(=O)N(C)Cc1cc(C(F)(F)F)cc(C(F)(F)F)c1 (racemic)
Out: 10.34

FYI, the data here is from ChEMBL document CHEMBL1949631.
